Molecular target: Nicotinamide N-methyltransferase (Homo sapiens)
Assay: Confirmatory Screen for Target Class Profiling of Small Molecule Inhibitors of Methyltransferases (AID 1745852)
Details: MTase-Glo luminescence, SAH detection, recombinant enzyme; measured here: NNMT max response; stronger effect = lower value
METRIC: activity

| COMPOUND | activity |
| --- | --- |
| COCc1nc2nc(-c3ccccc3)c(-c3ccc(O)c(F)c3)cc2n1C | -53% |

# per-item lookup of activity; items listed below
1. Cn1cc(-c2cc3c(ccn3Cc3ccncc3)c(N3CCOCC3)n2)cn1
2. CC(C)NC(=O)c1ccccc1OCC1CCCN(Cc2cn(C)c3ccccc23)C1 (stereo not given)
3. COc1ccc(OC)c2c1cc1n2CC(C)(C(=O)NC2CCCCC2C)N(Cc2ccco2)C1=O (stereo not given)

-4.04%
4.67%
-25.6%

# per-item lookup of activity; items listed below
1. CCOc1ccccc1CN1CCC(Cc2nc(-c3cccnc3)n[nH]2)C1 (stereo not given)
2. O=C(NCc1cccc(F)c1)c1nc2c(o1)CCN(CC1CCCC1)CC2
3. CC(C)Cn1c(=O)c2ccccc2n2c(CCC(=O)N3CCN(c4ccccc4)CC3)nnc12
4. COC(=O)c1cc2n(n1)CC(C)(C(=O)NC1CCC(C)CC1)N(Cc1ccc(OC)cc1OC)C2=O (stereo not given)

1: -34.4%; 2: 5.46%; 3: -46.8%; 4: -66.9%

# per-item lookup of activity; items listed below
1. Cc1ccc(C(=O)O)c2c1N[C@H](c1cccc(Cl)c1)C1CC=CC21 (stereo not given in full)
2. O=C(CCc1nnc2n(Cc3ccc(F)cc3)c(=O)c3ccccc3n12)N1CCC(N2CCCCC2)CC1
3. CN1C(=O)C(c2ccccc2)CC12CCN(c1ccnc(N)n1)CC2 (stereo not given)
4. CCCC1c2cccn2CCN1C(=O)Nc1ccc(C)cc1Cl (stereo not given)
5. Cc1ccc(Cn2c(=O)c3ccccc3n3c(CCC(=O)NCCCN4CCN(C)CC4)nnc23)cc1
6. Cn1c(=O)n(C)c2cc(S(=O)(=O)N3CCN(C4CCCCC4)CC3)c(Cl)cc21
7. CCNc1ncc(CN2CCN(c3ccncc3)CC2)cn1
8. O=C(NCCc1ccccc1)c1ccc2c(=O)[nH]c3c(C(=O)NCC4CCCO4)sc(=S)n3c2c1 (stereo not given)

1. 3.29%
2. -4.81%
3. 7.63%
4. -6.98%
5. -12.5%
6. -10.5%
7. -0.695%
8. -55.9%

# per-item lookup of activity; items listed below
1. Cc1ccc(C)c(N2CCN(C(=O)c3ccc4c(=O)[nH]c5c(C(=O)NC(C)C)sc(=S)n5c4c3)CC2)c1
2. Cc1ccc(N(C)S(=O)(=O)c2ccc3c(c2)n(C)c(=O)n3C)cc1
3. COc1cccc2c1OCCCN(c1cc(C3CC(O)C3)nc(N)n1)C2 (stereo not given)
4. CCc1ccc(NS(=O)(=O)c2ccc3c(c2)n(C)c(=O)n3C)cc1

["-76.8%", "-47%", "3.54%", "-40.6%"]

====

Molecular target: Bile acid receptor (Homo sapiens)
Assay: qHTS assay for small molecule antagonists of farnesoid X receptor signaling (AID 588526); note: % is set by controls: 0 for no effect and ±100 for the full control effect
Conditions: HEK293T FXR-UAS-bla, beta-lactamase ratio, antagonist mode; series mostly up to 76.7 µM
Records with an inconclusive call do not appear. Calls of active or inactive are those of the source. Calls follow the shape of the full dose curve.
METRIC: outcome

Answered cases to consult:
| SMILES_NOTATION | TARGET_OR_SYSTEM | METRIC | TEST_RESULT |
| --- | --- | --- | --- |
| C=CCOC(=O)c1ccccc1C(=O)OCC=C | Bile acid receptor (Homo sapiens) | outcome | inactive |
| C1OCOCO1 | Bile acid receptor (Homo sapiens) | outcome | inactive |
| O=S(=O)(O)c1ccccc1 | Bile acid receptor (Homo sapiens) | outcome | inactive |
| CN(C)C=O | Bile acid receptor (Homo sapiens) | outcome | inactive |
| CCO | Bile acid receptor (Homo sapiens) | outcome | inactive |

# per-item lookup of outcome; items listed below
1. COC(=O)c1ccc(C)cc1
2. Cc1ccc([N+](=O)[O-])cc1N
3. CCCCCCCCCCCCCC(=O)O

["inactive", "inactive", "inactive"]

outcome for `O=[N+]([O-])c1cccc(Cl)c1Cl` ?
inactive
